Values were extracted from ChEMBL document CHEMBL1932943.

target: UniProt:Q07343; assay: Inhibition of recombinant His-tagged PDE4B using cAMP as substrate at 30 uM preincubated for 15 mins before substrate addition measured after 1 hr by luminescence assay
Sequence (Q07343 whole entry): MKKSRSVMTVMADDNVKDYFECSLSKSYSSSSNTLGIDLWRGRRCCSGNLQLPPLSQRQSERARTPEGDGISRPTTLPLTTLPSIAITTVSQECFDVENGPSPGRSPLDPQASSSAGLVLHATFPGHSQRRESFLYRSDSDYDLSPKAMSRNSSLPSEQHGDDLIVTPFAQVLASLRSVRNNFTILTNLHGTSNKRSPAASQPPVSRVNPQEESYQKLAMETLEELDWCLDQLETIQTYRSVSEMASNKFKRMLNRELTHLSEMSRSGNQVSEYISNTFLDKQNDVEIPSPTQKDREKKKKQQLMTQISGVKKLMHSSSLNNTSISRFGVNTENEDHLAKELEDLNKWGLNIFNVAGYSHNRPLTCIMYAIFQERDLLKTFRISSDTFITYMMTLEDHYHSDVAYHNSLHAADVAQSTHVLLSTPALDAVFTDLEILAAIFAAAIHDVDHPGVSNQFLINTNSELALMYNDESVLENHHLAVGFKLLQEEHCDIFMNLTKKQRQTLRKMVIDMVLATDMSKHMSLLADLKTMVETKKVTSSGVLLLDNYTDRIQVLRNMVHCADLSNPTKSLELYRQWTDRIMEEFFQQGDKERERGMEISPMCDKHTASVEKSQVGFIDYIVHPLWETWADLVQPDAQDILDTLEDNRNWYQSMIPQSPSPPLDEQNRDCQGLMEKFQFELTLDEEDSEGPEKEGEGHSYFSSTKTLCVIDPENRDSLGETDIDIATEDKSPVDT
endpoint: inhibition (%)

P. CCOC(=O)c1c(C)nc(OCC)c(C#N)c1-c1ccc(OC)cc1
Q. CCOC(=O)c1c(C)nc(OCC)c(C#N)c1-c1ccc(F)cc1
R. COC(=O)c1c(C)nc(OC)c(C#N)c1-c1c(F)cc(Br)cc1F
Order the records so the highest inhibition appears first and the lowest last. Response field: labels, in requested order. P, Q, R
(P: 65.9%, Q: 42.3%, R: 22.4%)

1. COC(=O)c1c(C)nc(OC)c(C#N)c1-c1ccc(OC)cc1
2. COC(=O)c1c(C)nc(OC)c(C#N)c1-c1ccc(C(F)(F)F)cc1
3. COC(=O)c1c(C)nc(OC)c(C#N)c1-c1ccccc1
Hey, quick one: sort these by inhibition, low to high? Reply with the labels, ordered as the question asks. 2, 3, 1
(2: 23.5%, 3: 38.4%, 1: 64.1%)

1. CCOC(=O)c1c(C)nc(OCC)c(C#N)c1-c1ccc(Br)cc1
2. COC(=O)c1c(C)nc(OC)c(C#N)c1-c1ccc(F)cc1F
Sort 1 and 2 by inhibition descending and give the first. Use the label to indicate which entry you chose. 1

a. COC(=O)c1c(C)nc(OC)c(C#N)c1-c1ccc(F)cc1
b. CCOC(=O)c1c(C)nc(OCC)c(C#N)c1-c1ccc(F)cc1F
Of the pair a and b , name the member with the lesser recorded inhibition. When you have decided, please share the label of that item. b
(b: 20.4%, a: 43.2%)
